# half-life listing for each entry below
# ASSAY METHOD TEXT: Half life in Beagle dog at 1 mg/kg, iv and 2 mg/kg, po
# Format: ADME, organism-based, Canis lupus familiaris
# SETTINGS: in vivo
Field: numeric (h). Do not append units.

Below, 2 molecules whose answers are already recorded.
| MOLECULE | OBSERVED PROPERTY | UNIT SPEC | NUMBER |
| --- | --- | --- | --- |
| Cn1c(=O)oc2ccc(-c3ccc(C[C@@H](C#N)NC(=O)[C@@H]4CNCCCO4)cc3)cc21 [BRENSOCATIB] | half-life | h | 18 |
| CCn1c(=O)oc2ccc(-c3ccc(C[C@@H](C#N)NC(=O)[C@@H]4CNCCCO4)cc3)cc21 | half-life | h | 16 |

Now turn to the next molecule.
### Prompt For the molecule N#Cc1ccc(-c2ccc(C[C@@H](C#N)NC(=O)[C@@H]3CNCCCO3)cc2)cc1 , give its reported half-life.
### Response 10.7

====

# ASSAY METHOD TEXT: Intrinsic clearance in dog hepatocytes at 1 uM after 5 to 120 mins by LC-MS/MS method
# Format: ADME, cell-based, Canis lupus familiaris, Hepatocyte
OBSERVED PROPERTY: CLH

### Prompt For the compound Cn1c(=O)oc2ccc(-c3ccc(C[C@@H](C#N)NC(=O)[C@@H]4CNCCCO4)cc3)cc21 [BRENSOCATIB] , give its reported CLH.
### Response < 1 µL/min/1e6 cells

====

# ASSAY METHOD TEXT: Intrinsic clearance in human hepatocytes assessed per 10^6 cells at 1 uM after 10 to 90 mins by LC-MS/MS method
# Type: ADME, cell-based, Hepatocyte
# intrinsic clearance (CLint) listing for each entry below

### Prompt For the molecule N#C[C@H](Cc1ccc(-c2ccc3oc(=O)n(CC(F)F)c3c2)cc1)NC(=O)[C@@H]1CNCCCO1 , give its reported intrinsic clearance (CLint).
### Response 5 µL/min/10^6 cells

### Prompt For the molecule Cc1cc(-c2ccc(C[C@@H](C#N)NC(=O)[C@@H]3CNCCCO3)cc2)cc2c1oc(=O)n2C , give its reported intrinsic clearance (CLint).
### Response < 3.5 µL/min/10^6 cells

### Prompt For the molecule Cn1c(=O)sc2ccc(-c3ccc(C[C@@H](C#N)NC(=O)[C@@H]4CNCCCO4)cc3)cc21 , give its reported intrinsic clearance (CLint).
### Response < 3.5 µL/min/10^6 cells

### Prompt For the molecule N#Cc1ccc(-c2ccc(C[C@@H](C#N)NC(=O)[C@@H]3CNCCCO3)cc2)cc1 , give its reported intrinsic clearance (CLint).
### Response < 3.5 µL/min/10^6 cells

### Prompt For the molecule CCn1c(=O)oc2ccc(-c3ccc(C[C@@H](C#N)NC(=O)[C@@H]4CNCCCO4)cc3)cc21 , give its reported intrinsic clearance (CLint).
### Response < 3.5 µL/min/10^6 cells

### Prompt For the molecule Cn1c(=O)oc2ccc(-c3ccc(C[C@@H](C#N)NC(=O)[C@@H]4CNCCCO4)cc3)cc21 [BRENSOCATIB] , give its reported intrinsic clearance (CLint).
### Response < 3.5 µL/min/10^6 cells

====

# solubility kinetic at 2 h listing for each entry below
# ASSAY METHOD TEXT: physchem
# SETTINGS: buffer, pH 7.4
Field: numeric (µM). Do not append units.

Below, 2 molecules whose answers are already recorded.
| SMILES STR | solubility kinetic at 2 h / µM |
| --- | --- |
| Cn1c(=O)sc2ccc(-c3ccc(C[C@@H](C#N)NC(=O)[C@@H]4CNCCCO4)cc3)cc21 | 170 |
| N#Cc1ccc(-c2ccc(C[C@@H](C#N)NC(=O)[C@@H]3CCCCC[C@@H]3N)cc2)cc1 | 175 |

### Prompt For the molecule N#C[C@H](Cc1ccc(-c2ccc3oc(=O)n(CC(F)F)c3c2)cc1)NC(=O)[C@@H]1CNCCCO1 , give its reported solubility kinetic at 2 h.
### Response 190

### Prompt For the molecule N#Cc1ccc(-c2ccc(C[C@@H](C#N)NC(=O)[C@@H]3CCCC[C@@H]3N)cc2)cc1 , give its reported solubility kinetic at 2 h.
### Response 175

====

# ASSAY METHOD TEXT: Efflux ratio of apparent permeability across basolateral to apical over apical to basolateral side in human Caco2 cells at 10 uM after 1 hr by LC-MS method
# SETTINGS: Caco-2
# efflux ratio at 1 h, 10 µM listing for each entry below
// keep it numeric: no unit symbol after the value

Below, 3 molecules whose answers are already recorded.
| SMILES STR | efflux ratio at 1 h, 10 µM |
| --- | --- |
| N#Cc1ccc(-c2ccc(C[C@@H](C#N)NC(=O)[C@@H]3CCCCC[C@@H]3N)cc2)cc1 | 2 |
| N#Cc1ccc(-c2ccc(C[C@@H](C#N)NC(=O)[C@@H]3CNCCCO3)cc2)cc1 | 2.4 |
| Cc1cc(-c2ccc(C[C@@H](C#N)NC(=O)[C@@H]3CNCCCO3)cc2)cc2c1oc(=O)n2C | 5.9 |

### Prompt For the molecule Cn1c(=O)sc2ccc(-c3ccc(C[C@@H](C#N)NC(=O)[C@@H]4CNCCCO4)cc3)cc21 , give its reported efflux ratio at 1 h, 10 µM.
### Response 4.7

====

# TESTED SYSTEM: Dipeptidyl peptidase 1 (Mus musculus)
# Sequence (P97821 whole entry): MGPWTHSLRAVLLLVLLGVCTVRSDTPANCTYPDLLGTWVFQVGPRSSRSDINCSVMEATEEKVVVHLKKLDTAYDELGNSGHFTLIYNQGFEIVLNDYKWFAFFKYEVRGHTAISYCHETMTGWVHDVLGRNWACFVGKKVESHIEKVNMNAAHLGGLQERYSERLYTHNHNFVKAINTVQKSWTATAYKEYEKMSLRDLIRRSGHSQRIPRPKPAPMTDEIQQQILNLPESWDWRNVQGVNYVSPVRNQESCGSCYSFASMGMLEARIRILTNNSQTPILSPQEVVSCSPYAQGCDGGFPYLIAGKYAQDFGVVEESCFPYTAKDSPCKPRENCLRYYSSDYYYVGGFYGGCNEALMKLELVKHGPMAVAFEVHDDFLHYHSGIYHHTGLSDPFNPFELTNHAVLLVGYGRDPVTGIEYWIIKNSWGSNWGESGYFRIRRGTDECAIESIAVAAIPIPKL
# ASSAY METHOD TEXT: Inhibition of mouse DPP1 using Gly-Arg-AMC as substrate preincubated for 30 mins followed by substrate addition by fluorometric assay
OBSERVED PROPERTY: IC50 (nM)
Field: numeric (nM). Do not append units.

### Prompt Provide the reported IC50 (system: Dipeptidyl peptidase 1 (Mus musculus)) for Cn1c(=O)oc2ccc(-c3ccc(C[C@@H](C#N)NC(=O)[C@@H]4CNCCCO4)cc3)cc21 [BRENSOCATIB]
### Response 25.1

====

# ASSAY METHOD TEXT: Clearance in Beagle dog at 1 mg/kg, iv and 2 mg/kg, po
# Format: ADME, organism-based, Canis lupus familiaris
# SETTINGS: in vivo
# clearance listing for each entry below
Field: numeric (mL/min/kg). Do not append units.

Below, 2 molecules whose answers are already recorded.
| SMILES STR | OBSERVED PROPERTY | NUMBER |
| --- | --- | --- |
| CCn1c(=O)oc2ccc(-c3ccc(C[C@@H](C#N)NC(=O)[C@@H]4CNCCCO4)cc3)cc21 | clearance | 6 |
| N#Cc1ccc(-c2ccc(C[C@@H](C#N)NC(=O)[C@@H]3CNCCCO3)cc2)cc1 | clearance | 4.1 |

Now turn to the next molecule.
### Prompt For the molecule Cn1c(=O)oc2ccc(-c3ccc(C[C@@H](C#N)NC(=O)[C@@H]4CNCCCO4)cc3)cc21 , give its reported clearance.
### Response 8

====

# ASSAY METHOD TEXT: Apparent permeability across apical to basolateral side in human Caco2 cells at 10 uM after 2 hrs by LC-MS/MS method
# Assay type: ADME, cell-based
# SETTINGS: Caco-2
OBSERVED PROPERTY: Papp A→B at 2 h, 10 µM (×10⁻⁶ cm/s)
Field: numeric (×10⁻⁶ cm/s). Do not append units.

### Prompt For the molecule Cn1c(=O)oc2ccc(-c3ccc(C[C@@H](C#N)NC(=O)[C@@H]4CNCCCO4)cc3)cc21 [BRENSOCATIB] , give its reported Papp A→B at 2 h, 10 µM.
### Response 4

====

# ASSAY METHOD TEXT: Propionaldehyde reactivity assessed as half life of the compound at pH 7.4 by LC-UV method
# Assay type: physicochemical
# half-life listing for each entry below

Below, 4 compounds whose answers are already recorded.
| SMILES STR | half-life |
| --- | --- |
| N#Cc1ccc(-c2ccc(C[C@@H](C#N)NC(=O)[C@H]3CCCC[C@H]3N)cc2)cc1 | > 50 h |
| N#Cc1ccc(-c2ccc(C[C@@H](C#N)NC(=O)C3(N)CCOCC3)cc2)cc1 | < 1 h |
| N#Cc1ccc(-c2ccc(C[C@@H](C#N)NC(=O)[C@@H]3CNCCCO3)cc2)cc1 | > 50 h |
| N#Cc1ccc(-c2ccc(C[C@@H](C#N)NC(=O)[C@H]3CNCCO3)cc2)cc1 | > 50 h |

Now turn to the next compound.
### Prompt For the compound N#Cc1ccc(-c2ccc(C[C@@H](C#N)NC(=O)[C@H]3CCCC[C@@H]3N)cc2)cc1 , give its reported half-life.
### Response > 50 h

The measurements presented in this section are drawn from ChEMBL document CHEMBL3856275.
